# Test protocol: Pharmacokinetic properties in Sprague-Dawley rats after IV and PO administration
# Assay type: in vivo
# Condition details: male, plasma, 1 mg/kg, rat, IV (1 mpk)
Listing of entries alongside the reported AUC(0-inf).
Answer with a number only, understood to be in ng·h/mL.

CC(C)Oc1c([C@H](C)c2nc(Cl)c3c(N)nccn23)cc(Cl)c(F)c1-c1ccc(C(F)(F)F)nc1 [Compound 40A]	768
CC(C)Oc1c([C@H](C)c2nc(Cl)c3c(N)nccn23)cc(Cl)c(F)c1-c1ccc(C(=O)N(C)C)nc1 [Compound 16A]	1060

Let us move to another entry and its AUC(0-inf).
Which AUC(0-inf) is listed for CC(C)Oc1c(C(C)c2nc(Cl)c3c(N)nccn23)cc(Cl)c(F)c1C1CNC(=O)C1 (single isomer, unassigned) [Compound 48B] ? 425

----------
# Measurement target: recombinant PI3K (p110δ/p85α) (Homo sapiens)
# Sequence (O00329 whole entry): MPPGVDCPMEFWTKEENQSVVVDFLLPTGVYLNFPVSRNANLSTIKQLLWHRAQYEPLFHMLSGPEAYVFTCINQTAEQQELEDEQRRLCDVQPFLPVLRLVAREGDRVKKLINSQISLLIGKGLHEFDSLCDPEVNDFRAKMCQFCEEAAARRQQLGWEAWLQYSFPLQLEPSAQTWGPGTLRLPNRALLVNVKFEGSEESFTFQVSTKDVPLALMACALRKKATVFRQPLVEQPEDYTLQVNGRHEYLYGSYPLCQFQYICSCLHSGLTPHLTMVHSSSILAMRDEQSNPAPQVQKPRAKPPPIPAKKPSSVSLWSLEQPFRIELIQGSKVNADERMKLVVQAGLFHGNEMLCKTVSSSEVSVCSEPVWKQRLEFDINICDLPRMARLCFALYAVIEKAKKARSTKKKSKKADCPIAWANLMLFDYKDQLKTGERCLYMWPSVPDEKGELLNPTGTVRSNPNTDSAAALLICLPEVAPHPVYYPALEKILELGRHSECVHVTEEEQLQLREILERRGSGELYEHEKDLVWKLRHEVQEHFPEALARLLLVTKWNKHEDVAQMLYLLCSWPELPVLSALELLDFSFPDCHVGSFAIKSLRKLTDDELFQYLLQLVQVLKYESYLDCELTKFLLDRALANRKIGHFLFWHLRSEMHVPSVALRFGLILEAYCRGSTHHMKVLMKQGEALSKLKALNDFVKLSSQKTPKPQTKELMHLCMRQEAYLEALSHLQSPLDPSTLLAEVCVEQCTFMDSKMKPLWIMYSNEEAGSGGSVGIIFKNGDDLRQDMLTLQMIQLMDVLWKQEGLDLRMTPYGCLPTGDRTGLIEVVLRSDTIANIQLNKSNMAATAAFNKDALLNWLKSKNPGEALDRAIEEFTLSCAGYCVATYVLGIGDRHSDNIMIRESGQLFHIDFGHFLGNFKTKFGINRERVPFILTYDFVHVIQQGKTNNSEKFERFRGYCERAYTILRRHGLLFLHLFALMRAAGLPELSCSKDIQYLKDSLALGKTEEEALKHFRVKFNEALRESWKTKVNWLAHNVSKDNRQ
# Sequence (P27986 whole entry partner): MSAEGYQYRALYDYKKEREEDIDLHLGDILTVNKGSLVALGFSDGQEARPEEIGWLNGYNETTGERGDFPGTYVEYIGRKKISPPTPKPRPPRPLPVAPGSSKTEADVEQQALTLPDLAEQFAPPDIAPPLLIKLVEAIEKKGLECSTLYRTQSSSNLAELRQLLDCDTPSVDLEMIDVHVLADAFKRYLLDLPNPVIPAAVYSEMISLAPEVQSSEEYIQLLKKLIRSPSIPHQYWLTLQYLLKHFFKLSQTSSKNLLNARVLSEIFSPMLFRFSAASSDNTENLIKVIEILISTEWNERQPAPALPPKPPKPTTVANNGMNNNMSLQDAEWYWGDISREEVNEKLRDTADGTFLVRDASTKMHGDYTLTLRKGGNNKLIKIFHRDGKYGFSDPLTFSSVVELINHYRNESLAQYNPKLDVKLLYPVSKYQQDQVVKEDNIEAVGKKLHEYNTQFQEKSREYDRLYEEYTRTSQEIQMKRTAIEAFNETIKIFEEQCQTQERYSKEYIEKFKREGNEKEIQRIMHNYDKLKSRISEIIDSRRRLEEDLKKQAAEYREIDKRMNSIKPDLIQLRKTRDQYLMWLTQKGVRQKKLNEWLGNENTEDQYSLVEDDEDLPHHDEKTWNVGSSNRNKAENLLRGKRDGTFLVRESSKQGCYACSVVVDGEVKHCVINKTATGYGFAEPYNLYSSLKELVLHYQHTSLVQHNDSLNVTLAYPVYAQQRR
# Test protocol: PI3Kδ ADP-Glo kinase assay
# Format: biochemical
# Condition details: read-out: PI3Kδ Enzyme activity IC50
# Experimental: Compounds disclosed herein were tested for inhibition of PI3Kδ kinase activity using commercial ADP-Glo™ Kinase Assay (Promega Corporation) and following the manufacture's instruction. […] After incubation for 1 hr at room temperature, kinase detection reagent was added to simultaneously convert ADP to ATP and allow the newly synthesized ATP to be measured using a luciferase/luciferin reaction. […]
Below is a list of entries, each paired with its recorded pIC50 value.
Please report pIC50 as the negative decimal logarithm of the molar concentration, giving only the number.

Worked set:
CCOc1c(C(C)c2nc(Br)c3c(N)nccn23)cc(Cl)c(C)c1-c1ccc(Cl)nc1 (centres unmarked)	8.85
CCOc1c(C(C)c2nc(Cl)c3c(N)nccn23)cc(Cl)c(F)c1-c1ccc(C(F)(F)F)nc1 (centres unmarked)	8.49
CCOc1c(C(C)c2nc(Br)c3c(N)nccn23)cc(Cl)c(C)c1-c1ccc(C(F)(F)F)nc1 (centres unmarked)	8.54

Given CCOc1c(C(C)c2nc(Cl)c3c(N)nccn23)cc(Cl)c(C)c1-c1ccc(OC)cc1 (centres unmarked) , state its recorded pIC50. 7.77

Would you mind doing CCOc1c(C(C)c2nc(C)c3c(N)nccn23)cc(Cl)c(C)c1-c1ccc(C(F)(F)F)nc1 (centres unmarked) as well? 8.07

How about this compound: CCOc1c(C(C)c2nc(Cl)c3c(N)nccn23)cc(Cl)c(C)c1N1CCOCC1 (single isomer, unassigned) [Compound 51A] 9.10

Also, CC(C)Oc1c([C@@H](C)c2nc(Cl)c3c(N)nccn23)cc(Cl)c(F)c1-c1ccc(C(F)(F)F)nc1 [Compound 40B] please. 6.82

Here is the next compound: CC(C)Oc1c([C@@H](C)c2nc(Cl)c3c(N)nccn23)cc(Cl)c(F)c1-c1ccc(C(N)=O)nc1 [Compound 17A] 7.04

Further, for CCOc1c(C(C)c2nc(Cl)c3c(N)nccn23)cc(Cl)c(C)c1N1CCOCC1 (centres unmarked) [Compound 51] ? 8.80

Check Cc1nc([C@@H](C)c2cc(Cl)c(F)c(-c3ccc(C(=O)NC4(CO)CC4)nc3)c2OC(C)C)n2ccnc(N)c12 too. 9.14

What about CC(C)Oc1c(C(C)c2nc(Cl)c3c(N)nccn23)cc(Cl)c(F)c1C1CNC(=O)C1 (single isomer, unassigned) [Compound 48A] ? 9.40

Thanks! And CC(C)Oc1c([C@H](C)c2nc(Cl)c3c(N)nccn23)cc(Cl)c(F)c1-c1ccc(C(N)=O)nc1 [Compound 17B] ? 9.55

Also need COc1c(C(C)c2nc(Cl)c3c(N)nccn23)cc(Cl)c(C)c1-c1cccnc1 (centres unmarked) , thanks. 8.70

Next compound: COc1c(C(C)c2nc(C)c3c(N)nccn23)cc(Cl)c(C)c1-c1cccnc1 (centres unmarked) 8.11

Another: CCOc1c(C(C)c2nc(Cl)c3c(N)nccn23)cc(Cl)c(C)c1-c1ccc(OC)nc1 (centres unmarked) 8.68

----------
# Measurement target: PI3K (p110γ) (Homo sapiens, UniProt P48736)
# Sequence (P48736 whole entry): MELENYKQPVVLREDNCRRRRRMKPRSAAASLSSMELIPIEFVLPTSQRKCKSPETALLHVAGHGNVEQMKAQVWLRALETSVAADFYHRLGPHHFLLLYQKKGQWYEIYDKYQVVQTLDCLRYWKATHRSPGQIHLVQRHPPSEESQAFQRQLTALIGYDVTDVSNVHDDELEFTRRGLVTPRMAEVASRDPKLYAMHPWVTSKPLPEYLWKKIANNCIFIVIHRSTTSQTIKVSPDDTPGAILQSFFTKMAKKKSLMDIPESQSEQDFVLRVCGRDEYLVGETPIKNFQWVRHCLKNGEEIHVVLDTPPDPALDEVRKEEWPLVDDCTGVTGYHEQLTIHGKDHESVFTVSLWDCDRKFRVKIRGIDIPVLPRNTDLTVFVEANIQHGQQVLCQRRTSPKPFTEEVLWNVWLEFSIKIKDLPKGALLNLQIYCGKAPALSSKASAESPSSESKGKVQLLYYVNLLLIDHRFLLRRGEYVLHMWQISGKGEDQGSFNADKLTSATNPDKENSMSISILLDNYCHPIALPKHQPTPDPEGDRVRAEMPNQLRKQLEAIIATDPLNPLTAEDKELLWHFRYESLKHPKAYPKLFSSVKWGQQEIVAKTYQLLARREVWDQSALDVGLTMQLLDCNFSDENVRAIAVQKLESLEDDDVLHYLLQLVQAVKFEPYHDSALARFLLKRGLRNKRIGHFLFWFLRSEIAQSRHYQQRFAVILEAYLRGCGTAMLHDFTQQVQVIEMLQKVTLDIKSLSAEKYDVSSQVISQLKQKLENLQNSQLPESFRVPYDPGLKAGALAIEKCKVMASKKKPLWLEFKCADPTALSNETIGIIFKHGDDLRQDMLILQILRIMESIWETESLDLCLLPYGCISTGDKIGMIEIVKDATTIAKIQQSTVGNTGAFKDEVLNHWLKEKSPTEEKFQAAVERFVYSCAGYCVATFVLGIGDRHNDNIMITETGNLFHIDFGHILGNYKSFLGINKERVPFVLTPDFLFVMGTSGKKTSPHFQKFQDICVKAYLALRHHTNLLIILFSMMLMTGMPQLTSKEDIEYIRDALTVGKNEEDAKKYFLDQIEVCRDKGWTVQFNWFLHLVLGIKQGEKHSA
# Test protocol: PI3Kγ ADP-Glo kinase assay
# Assay type: biochemical
# Condition details: read-out: PI3Kγ Enzyme activity IC50
Measured attribute: IC50 (nM)
Numbers only; they are read as nM.

Example results:
CCOc1c([C@H](C)c2nc(Cl)c3c(N)nccn23)cc(Cl)c(C)c1-c1ccc(Cl)nc1 [Compound 27A]	1000
CCOc1c(C(C)c2nc(Br)c3c(N)nccn23)cc(Cl)c(C)c1-c1ccc(OCCOC)nc1 (stereo not drawn)	450
Cc1nc([C@@H](C)c2cc(Cl)c(F)c(-c3ccc(C(=O)NC(C)(C)C(=O)O)nc3)c2OC(C)C)n2ccnc(N)c12	840

Next item in the queue.
Param readout= IC50; system= PI3K (p110γ) (Homo sapiens, UniProt P48736); entry= CCOc1c(C(C)c2nc(Cl)c3c(N)nccn23)cc(Cl)c(Cl)c1-c1ccc(C(F)(F)F)nc1 (stereo not drawn) ; returns value. 730

----------
# Test protocol: Pharmacokinetic properties in Sprague-Dawley rats after IV and PO administration
# Assay type: in vivo
# Condition details: male, plasma, 1 mg/kg, rat, IV (1 mpk), read-out: VdSS
Measured attribute: Vd (L/kg)
Numeric only. Scale: L/kg

Given the molecule CC(C)Oc1c([C@H](C)c2nc(Cl)c3c(N)nccn23)cc(Cl)c(F)c1-c1ccc(C(=O)N(C)C)nc1 [Compound 16A] , what is its reported Vd? 1.8

Field entry: CC(C)Oc1c([C@H](C)c2nc(Cl)c3c(N)nccn23)cc(Cl)c(F)c1-c1ccc(C(F)(F)F)nc1 [Compound 40A] 14.8

Ok, now CC(C)Oc1c(C(C)c2nc(Cl)c3c(N)nccn23)cc(Cl)c(F)c1C1CNC(=O)C1 (single isomer, unassigned) [Compound 48B] 4.3

----------
# Measurement target: recombinant PI3K (p110α/p85α) (Homo sapiens)
# Sequence (P42336 whole entry): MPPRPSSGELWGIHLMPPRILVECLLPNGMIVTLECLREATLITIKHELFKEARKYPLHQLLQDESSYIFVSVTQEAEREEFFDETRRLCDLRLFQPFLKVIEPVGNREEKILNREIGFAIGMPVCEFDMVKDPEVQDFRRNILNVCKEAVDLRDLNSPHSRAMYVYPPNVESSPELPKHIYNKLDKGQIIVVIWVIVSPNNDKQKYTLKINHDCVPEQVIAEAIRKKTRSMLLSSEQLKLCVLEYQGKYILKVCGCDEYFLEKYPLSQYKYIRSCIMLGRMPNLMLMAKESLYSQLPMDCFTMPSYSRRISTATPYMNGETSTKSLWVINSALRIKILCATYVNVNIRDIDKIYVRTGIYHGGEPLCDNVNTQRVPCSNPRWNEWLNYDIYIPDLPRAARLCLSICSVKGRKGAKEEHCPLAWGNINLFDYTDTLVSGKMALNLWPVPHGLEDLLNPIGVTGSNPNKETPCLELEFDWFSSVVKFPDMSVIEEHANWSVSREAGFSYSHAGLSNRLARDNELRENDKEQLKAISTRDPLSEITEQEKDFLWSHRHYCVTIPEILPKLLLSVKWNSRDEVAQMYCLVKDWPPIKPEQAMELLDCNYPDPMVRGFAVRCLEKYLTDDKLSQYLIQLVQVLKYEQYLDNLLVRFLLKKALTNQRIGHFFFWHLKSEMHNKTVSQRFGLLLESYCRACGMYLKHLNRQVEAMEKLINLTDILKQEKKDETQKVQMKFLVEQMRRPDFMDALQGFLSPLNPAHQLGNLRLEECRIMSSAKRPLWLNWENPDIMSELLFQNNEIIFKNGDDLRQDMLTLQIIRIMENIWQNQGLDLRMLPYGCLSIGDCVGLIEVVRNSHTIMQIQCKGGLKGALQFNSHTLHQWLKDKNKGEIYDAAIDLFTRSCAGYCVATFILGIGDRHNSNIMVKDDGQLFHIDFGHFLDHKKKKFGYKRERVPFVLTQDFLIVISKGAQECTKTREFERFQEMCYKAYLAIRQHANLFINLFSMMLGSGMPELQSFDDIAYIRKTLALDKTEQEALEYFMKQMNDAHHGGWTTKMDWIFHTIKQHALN
# Sequence (P27986 whole entry partner): as the sequence (P27986 whole entry partner) above
# Test protocol: PI3Kα ADP-Glo kinase assay
# Type: biochemical
# Condition details: read-out: PI3Kα Enzyme activity IC50
Measured attribute: IC50 (µM)
# output: bare number, implied unit µM

Record excerpt, results attached:
COc1c(C(C)c2nc(Br)c3c(N)nccn23)cc(Cl)c(C)c1-c1ccc(Cl)nc1 (stereo not drawn) [Compound 22]	1.4
CCOc1c(C(C)c2nc(Cl)c3c(N)nccn23)cc(Cl)c(C)c1-c1ccc(OC)nc1 (stereo not drawn) [Compound 29]	2.9
CCOc1c(C(C)c2nc(Cl)c3c(N)nccn23)cc(Cl)c(C)c1-c1ccc(C(F)(F)F)nc1 (stereo not drawn) [Compound 25]	3
CCOc1cc(C)c(Cl)cc1C(C)c1nc(Br)c2c(N)nccn12 (stereo not drawn) [Compound 50]	36
Cc1nc(C(C)c2cc(Cl)c(F)c(-c3ccc(C#N)nc3)c2OC(C)C)n2ccnc(N)c12 (stereo not drawn) [Compound 59]	10
CCOc1c(C(C)c2nc(Cl)c3c(N)nccn23)cc(Cl)c(Cl)c1-c1ccc(C(F)(F)F)nc1 (stereo not drawn) [Compound 36]	1.3

So what IC50 did Cc1nc([C@@H](C)c2cc(Cl)c(F)c(-c3ccc(C(=O)N4CCC[C@H]4C(=O)O)nc3)c2OC(C)C)n2ccnc(N)c12 [Compound 67] get with recombinant PI3K (p110α/p85α) (Homo sapiens)? 5.2

----------
# Test protocol: Pharmacokinetic properties in Sprague-Dawley rats after IV and PO administration
# Type: in vivo
# Condition details: male, plasma, 5 mg/kg, rat, PO (5 mpk)
Measured attribute: Tmax (h)
Response body: numeric value in h, unit text excluded.

Previously resolved entries follow.
CC(C)Oc1c(C(C)c2nc(Cl)c3c(N)nccn23)cc(Cl)c(F)c1C1CNC(=O)C1 (single isomer, unassigned) [Compound 48B]	0.8
CC(C)Oc1c([C@H](C)c2nc(Cl)c3c(N)nccn23)cc(Cl)c(F)c1-c1ccc(C(=O)N(C)C)nc1 [Compound 16A]	1

# query: Tmax of entry CC(C)Oc1c([C@H](C)c2nc(Cl)c3c(N)nccn23)cc(Cl)c(F)c1-c1ccc(C(F)(F)F)nc1 [Compound 40A] 2.7

----------
# Measurement target: PI3K (p110γ) (Homo sapiens)
# Test protocol: PI3Kγ ADP-Glo kinase assay
# Assay type: biochemical
# Condition details: read-out: PI3Kγ Enzyme activity IC50
Measured attribute: IC50 (nM)
Number in nM, nothing else.

CCOc1cc(C)c(Cl)cc1C(C)c1nc(Br)c2c(N)nccn12 (stereo not shown) [Compound 50]	2600
CCOc1c(C(C)c2nc(Cl)c3c(N)nccn23)cc(F)c(Cl)c1-c1ccc(C(F)(F)F)nc1 (stereo not shown) [Compound 33]	750
CCOc1c(C(C)c2nc(Cl)c3c(N)nccn23)cc(Cl)c(C)c1-c1ccc(OCCOC)nc1 (stereo not shown) [Compound 31]	430

Consider the additional compound presented here.
What value of IC50 has been recorded for this entry: CCOc1c(C(C)c2nc(Cl)c3c(N)nccn23)cc(Cl)c(C)c1-c1ccc(Cl)nc1 (stereo not shown) [Compound 27] 1400

Each recorded value in this set is attributed to patent US11725012B2.
